Cited source for all entries: ChEMBL document CHEMBL3822409

Assay: Selectivity index, ratio of CC50 for human HCT116 cells to MIC for dormant stage of Mycobacterium bovis BCG ATCC 35734
Format: toxicity, cell-based, HCT-116
Conditions: read-out: Selectivity Index
READOUT TYPE: selectivity ratio

INSERT INTO assay_data (molecule, readout_type, measured_number) VALUES
  ('Cc1nc(-c2cccnc2)sc1-c1nnc(-c2ccccc2[N+](=O)[O-])o1', 'selectivity ratio', 17),
  ('COc1ccccc1-c1nnc(-c2sc(-c3cccnc3)nc2C)o1', 'selectivity ratio', 25),
  ('Cc1nc(-c2cccnc2)sc1-c1nnc(-c2ccccc2Cl)o1', 'selectivity ratio', 21),
  ('Cc1cccc(-c2nnc(-c3sc(-c4cccnc4)nc3C)o2)c1', 'selectivity ratio', 3),
  ('Cc1nc(-c2cccnc2)sc1-c1nnc(-c2ccccc2)o1', 'selectivity ratio', 3),
  ('Cc1nc(-c2cccnc2)sc1-c1nnc(-c2ccc(Br)cc2)o1', 'selectivity ratio', 3),
  ('Cc1nc(-c2cccnc2)sc1-c1nnc(-c2ccncc2)o1', 'selectivity ratio', 2),
  ('CO[C@H]1/C=C/O[C@@]2(C)Oc3c(C)c(O)c4c(O)c(c(/C=N/N5CCN(C)CC5)c(O)c4c3C2=O)NC(=O)/C(C)=C\C=C\[C@H](C)[C@H](O)[C@@H](C)[C@@H](O)[C@@H](C)[C@H](OC(C)=O)[C@@H]1C [RIFAMPIN]', 'selectivity ratio', 714),
  ('Cc1nc(-c2cccnc2)sc1-c1nnc(-c2ccc(Cl)cc2)o1', 'selectivity ratio', 3);
